Listing: melting point of selected compounds
VALUE TYPE: melting point

{"COMPOUND": "COCCOc1ccc(CCC(=O)C2=C(O)C(=O)N(c3nc4c(Cl)cccc4s3)C2c2ccccc2F)cc1 (stereo not shown) [Compound 577]", "REPORTED RESULT": "179 to 180 °C"}
{"COMPOUND": "CC(=O)C1=C(O)C(=O)N(c2nc3ccc(F)cc3s2)C1c1ccc(F)cc1 (stereo not shown) [Compound 423]", "REPORTED RESULT": "238 to 239 °C"}
{"COMPOUND": "CC(=O)c1sc(N2C(=O)C(O)=C(C(=O)c3cc4ccccc4o3)C2c2ccc(Oc3ccccc3)cc2)nc1C (stereo not shown) [Compound 56]", "REPORTED RESULT": "251 to 253 °C"}
{"COMPOUND": "CCc1ccc2nc(N3C(=O)C(O)=C(C(=O)c4ccc(C)o4)C3c3ccc(OC)cc3)sc2c1 (stereo not shown) [Compound 132]", "REPORTED RESULT": "192 to 194 °C"}
{"COMPOUND": "Cc1ccc(C(=O)C2=C(O)C(=O)N(c3nc4cccnc4s3)C2c2cccc(C#N)c2)o1 (stereo not shown) [Compound 246]", "REPORTED RESULT": "251 to 252 °C"}
{"COMPOUND": "Cc1ccc(C(=O)C2=C(O)C(=O)N(c3nc4ccc(Cl)cc4s3)C2c2ccc3ccccc3c2)o1 (stereo not shown) [Compound 599]", "REPORTED RESULT": "255 to 257 °C"}
{"COMPOUND": "COC(=O)c1cccc(C2C(C(=O)c3ccc(C)o3)=C(O)C(=O)N2c2nc3ccc(OC)cc3s2)c1 (stereo not shown) [Compound 154]", "REPORTED RESULT": "250 to 252 °C"}
